Settings: in acetone, 293.2 K
QUANTITY: solubility (mole fraction)
# print the numeric value only

Reported solubility (mole fraction) of O=c1c(-c2ccc(O)cc2)coc2cc(O[C@@H]3O[C@H](CO)[C@@H](O)[C@H](O)[C@H]3O)cc(O)c12 : 0.000361

====

Details: in n-hexane, 313.2 K
QUANTITY: solubility (mole fraction)

Reported solubility (mole fraction) of O=c1c(-c2ccc(O)cc2)coc2cc(O[C@@H]3O[C@H](CO)[C@@H](O)[C@H](O)[C@H]3O)cc(O)c12 : 8.58e-07

====

Settings: in acetonitrile, 303.2 K
QUANTITY: solubility (mole fraction)

Reported solubility (mole fraction) of O=c1c(-c2ccc(O)cc2)coc2cc(O[C@@H]3O[C@H](CO)[C@@H](O)[C@H](O)[C@H]3O)cc(O)c12 : 2.15e-06

====

Conditions: in ethyl acetate, 283.2 K
QUANTITY: solubility (mole fraction)

Reported solubility (mole fraction) of O=c1c(-c2ccc(O)cc2)coc2cc(O[C@@H]3O[C@H](CO)[C@@H](O)[C@H](O)[C@H]3O)cc(O)c12 : 1.17e-06
